- SUBJECT_OF_TEST: Histamine H1 receptor (Cavia porcellus (Guinea pig))
- Sequence (P31389 whole entry): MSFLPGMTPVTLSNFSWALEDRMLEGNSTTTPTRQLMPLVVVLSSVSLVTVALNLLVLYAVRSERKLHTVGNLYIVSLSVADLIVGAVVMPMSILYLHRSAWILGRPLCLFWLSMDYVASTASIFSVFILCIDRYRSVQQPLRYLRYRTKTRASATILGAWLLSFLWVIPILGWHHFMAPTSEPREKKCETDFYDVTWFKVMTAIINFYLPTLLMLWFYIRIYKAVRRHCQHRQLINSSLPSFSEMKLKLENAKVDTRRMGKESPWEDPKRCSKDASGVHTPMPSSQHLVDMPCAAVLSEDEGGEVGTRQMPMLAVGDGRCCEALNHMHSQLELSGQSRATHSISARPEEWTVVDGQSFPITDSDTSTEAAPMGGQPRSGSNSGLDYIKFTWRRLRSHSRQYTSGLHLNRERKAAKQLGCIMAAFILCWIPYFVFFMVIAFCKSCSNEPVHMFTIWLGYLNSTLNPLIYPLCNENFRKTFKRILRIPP
- ASSAY_TEXT: Histamine H1 receptor binding assay (3H-pyrilamine)
- STATED_CONDITIONS: guinea pig cerebellum membrane, 3H-pyrilamine
Attribute: Ki

COMPOUND: CN1COc2ccc(OCCCN3CCC(c4noc5cc(F)ccc45)CC3)cc2C1=O
BOUND_TYPE: >
Ki (nM): 2000
--
COMPOUND: CN1CCc2ccc(OCCCN3CCN(c4ccccc4F)CC3)cc2C1=O
BOUND_TYPE: >
Ki (nM): 2000
--
COMPOUND: O=C1CCc2ccc(OCCCCN3CCC(c4noc5cc(F)ccc45)CC3)cc2N1 [E, reference compound]
BOUND_TYPE: =
Ki (nM): 178
--
COMPOUND: CN1CCc2ccc(OCCCN3CCN(c4nsc5ccccc45)CC3)cc2C1=O
BOUND_TYPE: =
Ki (nM): 1360

====

- SUBJECT_OF_TEST: UniProt:P19327
- Sequence (P19327 whole entry): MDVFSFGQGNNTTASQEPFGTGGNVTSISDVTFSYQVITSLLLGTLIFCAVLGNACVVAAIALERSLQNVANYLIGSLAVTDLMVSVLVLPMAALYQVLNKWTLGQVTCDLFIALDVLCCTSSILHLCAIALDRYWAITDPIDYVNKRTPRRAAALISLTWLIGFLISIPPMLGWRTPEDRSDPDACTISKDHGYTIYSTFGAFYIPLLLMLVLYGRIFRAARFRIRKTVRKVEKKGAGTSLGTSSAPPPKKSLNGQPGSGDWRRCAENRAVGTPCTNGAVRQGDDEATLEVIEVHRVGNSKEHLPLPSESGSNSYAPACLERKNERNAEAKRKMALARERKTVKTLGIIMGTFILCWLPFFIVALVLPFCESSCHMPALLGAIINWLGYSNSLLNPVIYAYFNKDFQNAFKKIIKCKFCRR
- ASSAY_TEXT: 5-HT1A receptor binding assay (3H-8-OH-DPAT)
- STATED_CONDITIONS: rat cortex membrane, 3H-8-OH-DPAT
- Experimental: Rats were decapitated. […] Incubation at 37° C. was conducted for 10 min. […] Centrifugation was conducted and repeated 3 times. Materials for the Receptor Binding Assay
PARAMETER: Ki (nM)

COMPOUND: CN1CCc2ccc(OCCCN3CCC(C(=O)c4ccc(F)cc4)CC3)cc2C1=O [Compound 25]
UNIT_NAME: nM
BOUND_TYPE: =
QUANTITATIVE_RESULT: 17.6
--
COMPOUND: COc1ccccc1N1CCN(CCCOc2ccc3c(c2)C(=O)N(C)CC3)CC1 [Compound 22]
UNIT_NAME: nM
BOUND_TYPE: =
QUANTITATIVE_RESULT: 6.5
--
COMPOUND: CN1CCc2c(F)cc(OCCCN3CCC(c4noc5cc(F)ccc45)CC3)cc2C1=O [Compound 9]
UNIT_NAME: nM
BOUND_TYPE: =
QUANTITATIVE_RESULT: 3.9
--
COMPOUND: CN1COc2ccc(OCCCN3CCC(c4noc5cc(F)ccc45)CC3)cc2C1=O [Compound 11]
UNIT_NAME: nM
BOUND_TYPE: =
QUANTITATIVE_RESULT: 24.6
--
COMPOUND: Cc1nc2ccc(OCCCN3CCN(c4cccc(C(F)(F)F)c4)CC3)cc2c(=O)n1C [Compound 31]
UNIT_NAME: nM
BOUND_TYPE: =
QUANTITATIVE_RESULT: 19
--
COMPOUND: CN1CCc2ccc(OCCCN3CCN(c4ccccc4)CC3)cc2C1=O [Compound 16]
UNIT_NAME: nM
BOUND_TYPE: =
QUANTITATIVE_RESULT: 569
--
COMPOUND: CCN1CCc2ccc(OCCCN3CCC(c4noc5cc(F)ccc45)CC3)cc2C1=O [Compound 7]
UNIT_NAME: nM
BOUND_TYPE: =
QUANTITATIVE_RESULT: 1.9
--
COMPOUND: COc1ccc(N2CCN(CCCOc3ccc4c(c3)C(=O)N(C)CC4)CC2)cc1 [Compound 21]
UNIT_NAME: nM
BOUND_TYPE: >
QUANTITATIVE_RESULT: 2000

====

- SUBJECT_OF_TEST: D2 (Rattus norvegicus (Rat), UniProt P61169)
- Sequence (P61169 whole entry): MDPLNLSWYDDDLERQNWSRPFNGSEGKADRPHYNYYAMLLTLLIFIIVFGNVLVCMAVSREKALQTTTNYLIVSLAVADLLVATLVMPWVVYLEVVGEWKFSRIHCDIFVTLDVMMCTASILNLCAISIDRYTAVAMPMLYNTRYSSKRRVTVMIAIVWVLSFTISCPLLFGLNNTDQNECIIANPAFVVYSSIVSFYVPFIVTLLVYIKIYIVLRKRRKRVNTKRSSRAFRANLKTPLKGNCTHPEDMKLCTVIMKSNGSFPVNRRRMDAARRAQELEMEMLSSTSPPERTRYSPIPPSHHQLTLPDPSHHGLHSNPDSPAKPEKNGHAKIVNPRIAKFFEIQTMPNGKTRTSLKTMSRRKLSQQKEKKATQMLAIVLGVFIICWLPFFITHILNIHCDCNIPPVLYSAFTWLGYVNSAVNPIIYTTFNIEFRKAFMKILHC
- ASSAY_TEXT: D2 receptor binding assay (3H-Spiperone)
- STATED_CONDITIONS: read-out: Ki (nM) D2; rat striatum membrane, 3H-Spiperone
Attribute: Ki

QUERY_SMILES: O=C1NCCc2ccc(OCCCN3CCC(c4noc5cc(F)ccc45)CC3)cc21
SUBJECT_OF_TEST: D2 (Rattus norvegicus (Rat), UniProt P61169)
BOUND_TYPE: =
Ki / nM: 10.4

QUERY_SMILES: CN1CCc2ccc(OCCCN3CCN(c4ccc5ccccc5n4)CC3)cc2C1=O
SUBJECT_OF_TEST: D2 (Rattus norvegicus (Rat), UniProt P61169)
BOUND_TYPE: =
Ki / nM: 1990

QUERY_SMILES: CN1CCc2ccc(OCCCN3CCN(c4cccc5ccccc45)CC3)cc2C1=O
SUBJECT_OF_TEST: D2 (Rattus norvegicus (Rat), UniProt P61169)
BOUND_TYPE: =
Ki / nM: 134

QUERY_SMILES: CCN1CCc2ccc(OCCCN3CCC(c4noc5cc(F)ccc45)CC3)cc2C1=O
SUBJECT_OF_TEST: D2 (Rattus norvegicus (Rat), UniProt P61169)
BOUND_TYPE: =
Ki / nM: 13.1

QUERY_SMILES: CN1CCc2ccc(OCCCCN3CCC(c4noc5cc(F)ccc45)CC3)cc2C1=O
SUBJECT_OF_TEST: D2 (Rattus norvegicus (Rat), UniProt P61169)
BOUND_TYPE: =
Ki / nM: 12.5

QUERY_SMILES: CN1CCc2ccc(OCCCN3CCN(c4ccc(Cl)cc4)CC3)cc2C1=O
SUBJECT_OF_TEST: D2 (Rattus norvegicus (Rat), UniProt P61169)
BOUND_TYPE: >
Ki / nM: 2000

QUERY_SMILES: COc1ccc(N2CCN(CCCOc3ccc4c(c3)C(=O)N(C)CC4)CC2)cc1
SUBJECT_OF_TEST: D2 (Rattus norvegicus (Rat), UniProt P61169)
BOUND_TYPE: >
Ki / nM: 2000

QUERY_SMILES: CN1CCc2ccc(OCCCN3CCN(c4ccc5c(c4)OCO5)CC3)cc2C1=O
SUBJECT_OF_TEST: D2 (Rattus norvegicus (Rat), UniProt P61169)
BOUND_TYPE: =
Ki / nM: 235

QUERY_SMILES: CN1CCc2ccc(OCCCN3CCN(c4ccc(F)cc4)CC3)cc2C1=O
SUBJECT_OF_TEST: D2 (Rattus norvegicus (Rat), UniProt P61169)
BOUND_TYPE: =
Ki / nM: 1650
